Values from ChEMBL document CHEMBL1921766

experiment: Drug level in monkey serum at 1 mg/kg, po at 24 hrs by LC-MS/MS analysis; format: ADME, organism-based, Macaca mulatta; parameters: dose 1 mg/kg, route oral; conditions: rhesus monkey, read-out: Drug uptake
MEASURED_METRIC: concentration at 24 h (ng/mL)
Answers are plain numbers, in ng/mL.

For orientation, consider the following solved cases.
SMI: CC(C)N1CCc2nc(C(=O)Nc3cc(C(=O)O)ccc3CCC(=O)Nc3ccc(Cl)cc3)sc2C1.Cl
concentration at 24 h [ng/mL]: 26
//
SMI: CC(C)N1CCc2nc(C(=O)Nc3cc(C(=O)O)ccc3CNC(=O)c3ccc(Cl)s3)sc2C1.Cl
concentration at 24 h [ng/mL]: 7.1
//
SMI: CC(C)N1CCc2nc(C(=O)Nc3cc(C(=O)O)cc(Cl)c3CCC(=O)Nc3ccc(Cl)cc3)sc2C1.Cl
concentration at 24 h [ng/mL]: 17

// next item, concentration at 24 h requested
For reference, reported concentration at 24 h for CC(C)N1CCc2nc(C(=O)Nc3cc(C(=O)O)cc(F)c3CCC(=O)Nc3ccc(Cl)cc3)sc2C1.Cl stands at 6.1

----------
test: Solubility of the compound in Japanese pharmacopoeia second fluid at pH 6.8 at 10 mM after 12 hrs; format: physicochemical
MEASURED_METRIC: solubility at 12 h, 10000 µM

MOLECULE: CN1CCc2nc(C(=O)Nc3cc(C(=O)O)ccc3CNC(=O)c3ccc(Cl)s3)sc2C1
solubility at 12 h, 10000 µM: > 850 µg/mL
//
MOLECULE: CC(C)N1CCc2nc(C(=O)Nc3cc(C(=O)O)ccc3CCC(=O)Nc3ccc(Br)cc3)sc2C1
solubility at 12 h, 10000 µM: 520 µg/mL

Dear colleague, could you send me solubility at 12 h, 10000 µM for each of the items below? Thanks.
1. CN1CCc2nc(C(=O)Nc3cc(C(=O)O)ccc3CCC(=O)Nc3ccc(Cl)cc3)sc2C1
2. COCC(C)N1CCc2nc(C(=O)Nc3cc(C(=O)O)ccc3CNC(=O)c3ccc(Cl)s3)sc2C1 (stereo unspecified)

output:
1. 24 µg/mL
2. 1000 µg/mL

Dear colleague, could you send me solubility at 12 h, 10000 µM for each of the items below? Thanks.
1. CC(C)N1CCc2nc(C(=O)Nc3cc(C(=O)O)cc(F)c3CCC(=O)Nc3ccc(Cl)cc3)sc2C1
2. CN1CCc2nc(C(=O)Nc3cc(C(=O)O)ccc3CCC(=O)Nc3ccc(Cl)cn3)sc2C1
3. CCOc1cc(C(=O)O)cc(NC(=O)c2nc3c(s2)CN(C(C)C)CC3)c1CCC(=O)Nc1ccc(Cl)cc1
4. O=C(O)c1ccc(CNC(=O)c2ccc(Cl)s2)c(NC(=O)c2nc3c(s2)COCC3)c1
5. CC(CF)N1CCc2nc(C(=O)Nc3cc(C(=O)O)ccc3CNC(=O)c3ccc(Cl)s3)sc2C1 (stereo unspecified)

output:
1. 11 µg/mL
2. 210 µg/mL
3. 3 µg/mL
4. 950 µg/mL
5. 580 µg/mL

Dear colleague, could you send me solubility at 12 h, 10000 µM for each of the items below? Thanks.
1. O=C(NCc1cccc(C(=O)O)c1NC(=O)c1nc2c(s1)COCC2)c1ccc(Cl)s1
2. CC(C)N1CCc2nc(C(=O)Nc3c(CNC(=O)c4ccc(Cl)s4)cccc3C(=O)O)sc2C1

output:
930 µg/mL
1000 µg/mL

Dear colleague, could you send me solubility at 12 h, 10000 µM for each of the items below? Thanks.
1. CNC(=O)c1cccc(CNC(=O)c2ccc(Cl)s2)c1NC(=O)c1nc2c(s1)CN(C)CC2
2. CN1CCc2nc(C(=O)Nc3cc(C(=O)N(C)C)ccc3CNC(=O)c3ccc(Cl)s3)sc2C1

output:
["130 µg/mL", "830 µg/mL"]

----------
Please go through the items and note down their solubility at 12 h, 10000 µM.
experiment: Solubility of the compound in Japanese pharmacopoeia second fluid at pH 6.8 at 10 mM after 12 hrs; assay type: physicochemical

For orientation, consider the following solved cases.
SMI: CN1CCc2nc(C(=O)Nc3cc(C(N)=O)ccc3CNC(=O)c3ccc(Cl)s3)sc2C1
MEASURED_METRIC: solubility at 12 h, 10000 µM
RESULT: < 2.4 µg/mL

SMI: CCN1CCc2nc(C(=O)Nc3cc(C(=O)O)ccc3CNC(=O)c3ccc(Cl)s3)sc2C1
MEASURED_METRIC: solubility at 12 h, 10000 µM
RESULT: 1000 µg/mL

// next item, solubility at 12 h, 10000 µM requested
For reference, reported solubility at 12 h, 10000 µM for CN1CCc2nc(C(=O)Nc3c(CNC(=O)c4ccc(Cl)s4)cccc3C(=O)O)sc2C1 stands at > 800 µg/mL
